Quick reference for GLP-2 activity [EC50 (nmol)] among some binders
- assayed_target: glucagon-like peptide-2 (GLP-2) receptor
Starred links: 1 amine or outer side, 2 acyl side, 3 side chain; linkers in the order of their positions; H or OH if unused. Non-standard residues stand in square brackets, D forms with d. Groups on a side chain read outwards from the residue. No end group written: not given here. *: point of attachment. C18 diacid = O=C(O)CCCCCCCCCCCCCCCCC(=O)*; γGlu = O=C(O)[C@H](CCC(=O)[*:2])N[*:1]; Aib = CC(C)(N)C(=O)O

[
  {
    "binder": "H[Aib]EGSFTSELATILDK([PEG1CH2CO-γGlu-C18 diacid])QAARDFIAWLIQHKITD-NH2 [Compound 2]",
    "GLP-2 activity [EC50 (nmol)]": 5.51
  },
  {
    "binder": "H[Aib]EGSFTSELATILDK([PEG5CH2CO-γGlu-C18 diacid])QAARDFIAWLIQHKITD-NH2 [Compound 6]",
    "GLP-2 activity [EC50 (nmol)]": 4.62
  },
  {
    "binder": "H[Aib]EGSFTSELATILDK([PEG3CH2CO-γGlu-C18 diacid])QAARDFIAWLIQHKITD-NH2 [Compound 4]",
    "GLP-2 activity [EC50 (nmol)]": 4.33
  },
  {
    "binder": "H[Aib]EGSFTSELATILDK([PEG4CH2CO-γGlu-C18 diacid])QAARDFIAWLIQHKITD-NH2 [Compound 5]",
    "GLP-2 activity [EC50 (nmol)]": 5.54
  }
]
